# ASSAY_SYSTEM: human calpain I (Homo sapiens, UniProt P07384)
# Construct: The isolation of calpain from human erythrocytes was similar to that described by Wang et al. (1988); partially purified on DEAE-Sephacel and phenyl-Sepharose CL-4B
# Sequence (P07384 whole entry): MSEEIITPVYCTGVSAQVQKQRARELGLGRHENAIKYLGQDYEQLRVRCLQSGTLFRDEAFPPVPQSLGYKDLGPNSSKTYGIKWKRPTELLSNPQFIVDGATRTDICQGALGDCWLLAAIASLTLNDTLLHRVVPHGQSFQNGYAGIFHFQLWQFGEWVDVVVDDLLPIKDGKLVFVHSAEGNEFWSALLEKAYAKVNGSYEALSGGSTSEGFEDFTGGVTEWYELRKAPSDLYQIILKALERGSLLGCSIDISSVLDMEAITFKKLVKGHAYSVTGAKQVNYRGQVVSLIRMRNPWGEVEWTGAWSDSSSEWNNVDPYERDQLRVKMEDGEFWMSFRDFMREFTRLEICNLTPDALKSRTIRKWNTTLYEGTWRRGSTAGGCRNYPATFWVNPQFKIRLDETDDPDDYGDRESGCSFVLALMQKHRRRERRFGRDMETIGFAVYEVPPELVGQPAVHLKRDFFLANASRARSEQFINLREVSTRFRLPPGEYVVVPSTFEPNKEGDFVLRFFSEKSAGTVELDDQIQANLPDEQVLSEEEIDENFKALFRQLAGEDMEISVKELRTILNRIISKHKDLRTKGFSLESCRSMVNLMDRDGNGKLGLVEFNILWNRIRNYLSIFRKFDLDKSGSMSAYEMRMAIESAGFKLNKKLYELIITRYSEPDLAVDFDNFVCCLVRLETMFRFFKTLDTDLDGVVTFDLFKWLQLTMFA
# Sequence (P04632 whole entry partner): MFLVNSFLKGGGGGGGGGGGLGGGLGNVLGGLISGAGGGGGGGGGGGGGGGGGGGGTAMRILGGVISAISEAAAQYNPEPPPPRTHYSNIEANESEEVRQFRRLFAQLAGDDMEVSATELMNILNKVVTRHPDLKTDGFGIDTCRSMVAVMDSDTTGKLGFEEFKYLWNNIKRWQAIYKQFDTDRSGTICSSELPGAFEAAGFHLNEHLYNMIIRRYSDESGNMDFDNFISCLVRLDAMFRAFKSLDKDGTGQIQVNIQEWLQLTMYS
# PROCEDURE_DETAILS: Calpain I Inhibition Assay (3H-acetyl casein degradation)
# MEASUREMENT_SETUP: human erythrocyte calpain I; 3H-acetyl Casein substrate; 25° C., 2 hours incubation; read-out: IC50 against human calpain I
pIC50: −log10 of the molar value.
PROPERTY: pIC50

Check out these entries, answers already filled in.
| GIVEN_SMILES | PROPERTY | MEASUREMENT |
| --- | --- | --- |
| NC(=O)c1cn(-c2ccc(O)cc2F)c2cc(-c3ccncc3)ccc2c1=O | pIC50 | 5.13 |
| Cc1cc(O)ccc1-n1cc(C(N)=O)c(=O)c2ccc(-c3ccncc3)cc21 | pIC50 | 6.29 |
| NC(=O)c1cn(-c2ccc(O)cc2Cl)c2cc(-c3ccncc3)ccc2c1=O | pIC50 | 6.22 |
| NC(=O)c1cn(-c2ccc(O)cc2Cl)c2cc(-c3ccnnc3)ccc2c1=O | pIC50 | 5.77 |
| NC(=O)c1cn(-c2ccc(O)cc2Cl)c2cc(-c3ccoc3)ccc2c1=O | pIC50 | 5.77 |

1. NC(=O)c1cn(-c2ccc(O)cc2Cl)c2cc(-c3cccnc3)ccc2c1=O
2. NC(=O)c1cn(-c2ccc(O)cc2Cl)c2cc(-c3ccncc3Cl)ccc2c1=O
3. NC(=O)c1cn(-c2ccc(O)cc2Cl)c2cc(-c3cc[nH]n3)ccc2c1=O
4. NC(=O)c1cn(-c2ccc(O)c(F)c2)c2cc(-c3ccncc3)ccc2c1=O
Query string: Order by pIC50, ascending. # respond with the labels, arranged in the requested order
Result string: 1, 4, 2, 3

Just for reference, patent US5622967A is where these values come from.
